target: Coagulation factor X (Homo sapiens)
Sequence (P00742 41-179 limits assumed): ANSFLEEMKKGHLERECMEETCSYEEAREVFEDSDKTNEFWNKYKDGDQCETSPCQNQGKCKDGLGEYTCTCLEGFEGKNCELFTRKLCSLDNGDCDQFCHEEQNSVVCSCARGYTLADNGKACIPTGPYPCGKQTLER
Sequence (P00742 235-488 limits assumed): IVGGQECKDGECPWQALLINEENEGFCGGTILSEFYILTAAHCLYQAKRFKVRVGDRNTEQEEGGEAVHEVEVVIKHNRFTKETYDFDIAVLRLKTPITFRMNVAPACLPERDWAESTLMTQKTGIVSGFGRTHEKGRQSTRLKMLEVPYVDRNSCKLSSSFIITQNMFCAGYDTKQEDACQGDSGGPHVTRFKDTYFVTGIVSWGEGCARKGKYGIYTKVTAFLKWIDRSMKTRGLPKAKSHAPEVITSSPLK
endpoint.name: Ki (nM)
Give bare numbers, in nM.

Known results for molecules:
| structure | Ki, nM |
| --- | --- |
| COc1ccc(-n2nc(C(F)(F)F)cc2C(=O)NC2CCN(c3ccccc3CN(C)C)CC2)cc1 | 8.8 |
| COc1ccc(-n2nc(C(F)(F)F)cc2C(=O)NC2CCN(c3ccccc3S(C)(=O)=O)CC2)cc1 | 14 |

Okay, next one:
GET /values?readout=Ki&system=Coagulation factor X (Homo sapiens)&item= COc1ccc(-n2nc(C(N)=O)c3c2C(=O)N(C2CCN(c4ccccc4CN4CCC[C@@H]4O)CC2)CC3)cc1
0.87

====

For each of the compounds below, state its Papp.
assay: Apparent permeability across Caco-2 cells; conditions: human
Answers are plain numbers, in nm/s.

| structure | unit.of.measure | Papp |
| --- | --- | --- |
| COc1ccc(-n2nc(C(N)=O)c3c2C(=O)N(C2CCN(c4ccccc4S(C)(=O)=O)CC2)CC3)cc1 | nm/s | 15 |
| Nc1noc2ccc(-n3nc(C(F)(F)F)cc3C(=O)NC3CCN(c4ccccc4CN4CCCC4)CC3)cc12 | nm/s | 13 |
| Nc1noc2ccc(-n3nc(C(F)(F)F)cc3C(=O)NC3CCN(c4ccccc4CN4CCC[C@H]4O)CC3)cc12 | nm/s | 2 |

I have 3 compounds here; please give me Papp for each one.
1. CS(=O)(=O)c1ccccc1N1CCC(NC(=O)c2cc(C(F)(F)F)nn2-c2ccc3onc(N)c3c2)CC1
2. CNCc1ccccc1N1CCC(NC(=O)c2cc(C(F)(F)F)nn2-c2ccc3onc(N)c3c2)CC1
3. CCN(C)Cc1ccccc1N1CCC(NC(=O)c2cc(C(F)(F)F)nn2-c2ccc3onc(N)c3c2)CC1

17
1
27

====

assay: Half life in dog at 0.2 mg/kg, po; details: in vivo
endpoint.name: half-life (h)
Give bare numbers, in h.

Known results for molecules:
| structure | half-life (h) |
| --- | --- |
| CCN(C)Cc1ccccc1N1CCC(NC(=O)c2cc(C(F)(F)F)nn2-c2ccc3onc(N)c3c2)CC1 | 2.5 |
| CNCc1ccccc1N1CCC(NC(=O)c2cc(C(F)(F)F)nn2-c2ccc3onc(N)c3c2)CC1 | 0.3 |
| COc1ccc(-n2nc(C(N)=O)c3c2C(=O)N(C2CCN(c4ccccc4S(C)(=O)=O)CC2)CC3)cc1 | 0.8 |
| CS(=O)(=O)c1ccccc1N1CCC(NC(=O)c2cc(C(F)(F)F)nn2-c2ccc3onc(N)c3c2)CC1 | 1.3 |

Okay, next one:
Record request: half-life value, item Nc1noc2ccc(-n3nc(C(F)(F)F)cc3C(=O)NC3CCN(c4ccccc4CN4CCCC4)CC3)cc12
5

====

assay: in vivo; conditions: dog, po, 0.2 mg/kg
Where bioavailability equals or exceeds 30%, the correct label is satisfied; where it does not, the label is not satisfied.

Example cases with answers are listed next.
| structure | cat |
| --- | --- |
| CS(=O)(=O)c1ccccc1N1CCC(NC(=O)c2cc(C(F)(F)F)nn2-c2ccc3onc(N)c3c2)CC1 | not satisfied |
| CCN(C)Cc1ccccc1N1CCC(NC(=O)c2cc(C(F)(F)F)nn2-c2ccc3onc(N)c3c2)CC1 | not satisfied |
| Nc1noc2ccc(-n3nc(C(F)(F)F)cc3C(=O)NC3CCN(c4ccccc4CN4CCCC4)CC3)cc12 | not satisfied |
| COc1ccc(-n2nc(C(N)=O)c3c2C(=O)N(C2CCN(c4ccccc4S(C)(=O)=O)CC2)CC3)cc1 | satisfied |

Okay, next one:
Hi, just wondering whether CNCc1ccccc1N1CCC(NC(=O)c2cc(C(F)(F)F)nn2-c2ccc3onc(N)c3c2)CC1 shows bioavailability of 30% or higher.
not satisfied
